The reported numbers originate from ChEMBL document CHEMBL1129522.

- Target Or System: UniProtKB O70536
- Sequence (O70536 whole entry): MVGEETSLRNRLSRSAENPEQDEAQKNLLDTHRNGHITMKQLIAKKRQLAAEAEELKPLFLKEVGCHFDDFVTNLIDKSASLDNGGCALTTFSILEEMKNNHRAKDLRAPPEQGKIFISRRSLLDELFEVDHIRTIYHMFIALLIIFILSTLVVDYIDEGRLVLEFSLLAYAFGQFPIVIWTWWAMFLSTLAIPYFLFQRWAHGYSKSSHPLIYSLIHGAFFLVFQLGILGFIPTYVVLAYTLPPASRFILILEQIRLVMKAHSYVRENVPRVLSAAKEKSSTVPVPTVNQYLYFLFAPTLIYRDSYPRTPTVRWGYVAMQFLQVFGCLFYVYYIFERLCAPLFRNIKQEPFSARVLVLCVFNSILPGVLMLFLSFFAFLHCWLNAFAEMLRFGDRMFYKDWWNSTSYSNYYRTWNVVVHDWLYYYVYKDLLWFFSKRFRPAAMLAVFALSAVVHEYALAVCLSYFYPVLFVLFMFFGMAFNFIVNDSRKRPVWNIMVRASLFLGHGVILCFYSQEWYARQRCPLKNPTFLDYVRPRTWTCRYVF
pIC50: −log10 of the molar value.
Value Type: pIC50

[
  {
    "Compound Structure": "CCCCN(CCCC)S(=O)(=O)NC(=O)Oc1c(C(C)C)cccc1C(C)C",
    "Target Or System": "UniProtKB O70536",
    "Bound Type": "=",
    "Result Value": 5.72
  },
  {
    "Compound Structure": "CC(C)c1cc(F)cc(C(C)C)c1OC(=O)NS(=O)(=O)Oc1c(C(C)C)cccc1C(C)C",
    "Target Or System": "UniProtKB O70536",
    "Bound Type": "<",
    "Result Value": 4.30
  },
  {
    "Compound Structure": "CC(C)c1cccc(C(C)C)c1OS(=O)(=O)NC(=O)Oc1c(F)c(F)c(F)c(F)c1F",
    "Target Or System": "UniProtKB O70536",
    "Bound Type": "=",
    "Result Value": 4.18
  },
  {
    "Compound Structure": "Cc1cccc(C)c1OS(=O)(=O)NC(=O)Oc1c(C(C)C)cccc1C(C)C",
    "Target Or System": "UniProtKB O70536",
    "Bound Type": "<",
    "Result Value": 4.30
  },
  {
    "Compound Structure": "CC(C)c1cccc(C(C)C)c1OS(=O)(=O)NC(=O)Oc1c(F)cccc1F",
    "Target Or System": "UniProtKB O70536",
    "Bound Type": "=",
    "Result Value": 4.19
  },
  {
    "Compound Structure": "Cc1cc(C(C)(C)C)c(OC(=O)NS(=O)(=O)N(C(C)C)C(C)C)c(C(C)(C)C)c1",
    "Target Or System": "UniProtKB O70536",
    "Bound Type": "=",
    "Result Value": 5.49
  },
  {
    "Compound Structure": "CC(C)c1ccccc1OC(=O)NS(=O)(=O)Oc1c(C(C)C)cccc1C(C)C",
    "Target Or System": "UniProtKB O70536",
    "Bound Type": "<",
    "Result Value": 4.30
  },
  {
    "Compound Structure": "CC(C)c1cccc(C(C)C)c1OC(=O)NS(=O)(=O)Oc1c(C(C)C)cccc1C(C)C",
    "Target Or System": "UniProtKB O70536",
    "Bound Type": "=",
    "Result Value": 5.03
  },
  {
    "Compound Structure": "CC(C)c1cccc(C(C)C)c1OS(=O)(=O)NC(=O)OC1CCCCC1",
    "Target Or System": "UniProtKB O70536",
    "Bound Type": "=",
    "Result Value": 4.42
  }
]

###

- Target Or System: Sterol O-acyltransferase 1 (Rattus norvegicus)
With a cut-off of 10 µM, any IC50 strictly below it is called YES; any IC50 meeting it or above is called NO.

[
  {
    "Compound Structure": "CC(C)c1cc(O)cc(C(C)C)c1OC(=O)NS(=O)(=O)Oc1c(C(C)C)cccc1C(C)C",
    "Class Assignment": "NO"
  },
  {
    "Compound Structure": "CC(C)c1cccc(C(C)C)c1OC(=O)NS(=O)(=O)N(Cc1ccccc1)C(C)C",
    "Class Assignment": "NO"
  },
  {
    "Compound Structure": "CCCCN(CCCC)S(=O)(=O)NC(=O)Nc1c(C(C)C)cccc1C(C)C",
    "Class Assignment": "YES"
  },
  {
    "Compound Structure": "CCCN(CCC)S(=O)(=O)NC(=O)Nc1c(C(C)C)cccc1C(C)C",
    "Class Assignment": "YES"
  },
  {
    "Compound Structure": "CCCCCCN(CCCCCC)S(=O)(=O)NC(=O)Oc1c(C(C)(C)C)cc(C)cc1C(C)(C)C",
    "Class Assignment": "YES"
  },
  {
    "Compound Structure": "CCCCCCOS(=O)(=O)NC(=O)Oc1c(C(C)C)cccc1C(C)C",
    "Class Assignment": "NO"
  },
  {
    "Compound Structure": "CC(C)c1cccc(C(C)C)c1NS(=O)(=O)NC(=O)Oc1c(-c2ccccc2)cccc1-c1ccccc1",
    "Class Assignment": "NO"
  },
  {
    "Compound Structure": "CCCCCCCCN(C)S(=O)(=O)NC(=O)Oc1c(C(C)(C)C)cc(C)cc1C(C)(C)C",
    "Class Assignment": "NO"
  },
  {
    "Compound Structure": "CC(C)c1cccc(C(C)C)c1NC(=O)NS(=O)(=O)N(C(C)C)C(C)(C)C",
    "Class Assignment": "YES"
  },
  {
    "Compound Structure": "CC(C)c1cccc(C(C)C)c1OC(=O)NS(=O)(=O)NC(c1ccccc1)c1ccccc1",
    "Class Assignment": "NO"
  }
]

###

- Test system: Rattus norvegicus
- Method Notes: Acute in vivo activity measured by total plasma cholesterol concentration levels (TC) at 30 mg/kg dose
- Format: functional
Value Type: Delta TC (%)

[
  {
    "Compound": "CCCCCCCCCCCCN(CCCCCCCCCCCC)S(=O)(=O)NC(=O)Nc1c(C(C)C)cccc1C(C)C",
    "Unit Text": "%",
    "Result Value": -5
  },
  {
    "Compound": "CC(C)c1cc(C(C)C)c(OC(=O)NS(=O)(=O)Oc2c(C(C)C)cc(C(C)C)cc2C(C)C)c(C(C)C)c1",
    "Unit Text": "%",
    "Result Value": -65
  },
  {
    "Compound": "CC(C)c1cccc(C(C)C)c1OS(=O)(=O)NC(=O)O[C@@H]1C[C@H](C)CCC1C(C)C (stereo partly drawn)",
    "Unit Text": "%",
    "Result Value": -40
  },
  {
    "Compound": "CC(C)c1cc(C(C)C)c(OS(=O)(=O)NC(=O)Oc2c(C(C)C)cccc2C(C)C)c(C(C)C)c1",
    "Unit Text": "%",
    "Result Value": -67
  },
  {
    "Compound": "CC(C)c1cccc(C(C)C)c1OS(=O)(=O)NC(=O)Oc1c(C(C)(C)C)cccc1C(C)(C)C",
    "Unit Text": "%",
    "Result Value": -70
  },
  {
    "Compound": "CCCCCCCCCCCCCCCCOS(=O)(=O)NC(=O)Oc1c(C(C)C)cccc1C(C)C",
    "Unit Text": "%",
    "Result Value": -60
  },
  {
    "Compound": "COc1cc(C(C)(C)C)c(OC(=O)NS(=O)(=O)Oc2c(C(C)C)cccc2C(C)C)c(C(C)(C)C)c1",
    "Unit Text": "%",
    "Result Value": -72
  },
  {
    "Compound": "CC(C)c1cccc(C(C)C)c1OS(=O)(=O)NC(=O)OC1C2CC3CC(C2)CC1C3 (stereo not drawn)",
    "Unit Text": "%",
    "Result Value": -36
  }
]

###

# IC50 listing for each entry below
- Target Or System: Sterol O-acyltransferase 1 (Rattus norvegicus, UniProt O70536)
- Sequence (O70536 whole entry): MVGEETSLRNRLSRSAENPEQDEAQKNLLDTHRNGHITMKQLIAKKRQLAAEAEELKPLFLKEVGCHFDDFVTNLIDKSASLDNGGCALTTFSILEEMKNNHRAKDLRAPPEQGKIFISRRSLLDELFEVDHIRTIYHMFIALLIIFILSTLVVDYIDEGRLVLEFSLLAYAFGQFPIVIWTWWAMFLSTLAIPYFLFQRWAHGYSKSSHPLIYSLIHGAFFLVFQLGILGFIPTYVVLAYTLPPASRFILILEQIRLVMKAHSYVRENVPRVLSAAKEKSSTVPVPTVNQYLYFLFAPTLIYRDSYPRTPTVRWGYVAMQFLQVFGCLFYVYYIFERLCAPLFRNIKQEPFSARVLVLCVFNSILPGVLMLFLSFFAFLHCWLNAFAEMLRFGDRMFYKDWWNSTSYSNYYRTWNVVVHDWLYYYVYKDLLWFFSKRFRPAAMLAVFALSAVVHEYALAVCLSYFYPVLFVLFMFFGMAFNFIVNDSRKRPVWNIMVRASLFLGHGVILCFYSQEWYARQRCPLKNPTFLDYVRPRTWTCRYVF

[
  {
    "Compound Structure": "CCCCCCCCCCCCOS(=O)(=O)NC(=O)Oc1c(C(C)C)cccc1C(C)C",
    "Unit Text": "µM",
    "Bound Type": "=",
    "IC50": 13
  },
  {
    "Compound Structure": "COc1cc(C(C)(C)C)c(OC(=O)[N-]S(=O)(=O)Oc2c(C(C)C)cccc2C(C)C)c(C(C)(C)C)c1.[Na+]",
    "Unit Text": "µM",
    "Bound Type": "=",
    "IC50": 10
  },
  {
    "Compound Structure": "COc1cc(C(C)(C)C)c(OC(=O)NS(=O)(=O)Nc2c(C(C)C)cccc2C(C)C)c(C(C)(C)C)c1",
    "Unit Text": "µM",
    "Bound Type": "=",
    "IC50": 15
  },
  {
    "Compound Structure": "Cc1cc(C)c(C)c(OC(=O)NS(=O)(=O)Oc2c(C(C)C)cccc2C(C)C)c1C",
    "Unit Text": "µM",
    "Bound Type": ">",
    "IC50": 50
  }
]
